Assay: qHTS assay for identifying genotoxic compounds that show differential cytotoxicity against isogenic chicken DT40 cell lines with known DNA damage response pathways - Rev3 mutant cell line (AID 743014); note: nearly all actives have a fitted effect of over 55% in size
Conditions: chicken DT40 Rev3-/- viability, CellTiter-Glo, 40 h; series mostly up to 68.4 µM
Results filed as inconclusive are left out. Calls of active or inactive are those of the source. Calls come from the whole dose curve; as a rule, active = well fitted cell-killing curve with a large enough effect in the repeat runs; inconclusive = weak or mixed curves, or effect the other way; inactive = no such curve, though single readings can be large or run the other way.
Possible outcomes: t for active, f for inactive

[[record]]
compound = "CC1CCC(=O)C1=O (centres undefined)"
label_class = "f"

[[record]]
compound = "COc1ccc(S(=O)(=O)N2C(=O)[C@@](c3ccccc3OC)(N3C[C@H](O)C[C@H]3C(=O)N(C)C)c3cc(Cl)ccc32)c(OC)c1"
label_class = "t"

[[record]]
compound = "NC(N)=NCCC[C@H](N)C(=O)O"
label_class = "f"

[[record]]
compound = "Clc1ccc(Cn2c(CN3CCCC3)nc3ccccc32)cc1"
label_class = "t"

[[record]]
compound = "CN(C)C(=O)NC1(c2ccccc2)CCN(CC[C@@]2(c3ccc(F)c(F)c3)CN(C(=O)c3ccccc3)CCO2)CC1"
label_class = "t"

[[record]]
compound = "CC1(c2ccccc2)OC(C(=O)O)=CC1=O (centres undefined)"
label_class = "f"

[[record]]
compound = "C=CC(=O)OCCOCCOC(=O)C=C"
label_class = "t"

[[record]]
compound = "O=C1c2ccccc2S(=O)(=O)N1CCCCN1CCN(c2ncccn2)CC1"
label_class = "f"

[[record]]
compound = "CCOc1ccc(O)cc1"
label_class = "t"

[[record]]
compound = "COc1cc2nc(N3CCN(C(=O)C4COc5ccccc5O4)CC3)nc(N)c2cc1OC (centres undefined)"
label_class = "f"

[[record]]
compound = "COc1ccc(C(=O)Nc2nc3ccccc3c(NCc3ccccc3)c2C#N)cc1"
label_class = "t"

[[record]]
compound = "CC(CSC(=O)c1ccccc1)C(=O)N1C[C@@H](Sc2ccccc2)C[C@H]1C(=O)O (some centres undefined)"
label_class = "f"

[[record]]
compound = "C=CCOc1ccccc1OCC(O)CNC(C)C (centres undefined)"
label_class = "f"

[[record]]
compound = "C[N+](C)(C)CCOC(=O)CCC(=O)OCC[N+](C)(C)C"
label_class = "f"


====

Target: Cytochrome P450 1A2 (Homo sapiens)
Assay: Cytochrome P450 Family 1 Subfamily A Member 2 (CYP1A2) small molecule antagonists: luciferase reporter qHTS assay (AID 1671199); note: nearly all actives have a fitted effect of over 50% in size; note: potency is the fitted concentration of half-maximal effect
Settings: P450-Glo CYP1A2 enzyme, luciferin luminescence, 1 h; series mostly up to 53 µM
Results filed as inconclusive are left out. Active and inactive are the calls of the source. Calls follow the shape of the dose curve; as a rule, active = well fitted inhibition curve with a large enough effect in the repeat runs; inconclusive = weak or mixed curves; inactive = no such curve, though single readings can be large or run the other way.
Parameter: Potency

[[record]]
compound_structure_string = "Cn1c(=O)cc(Oc2ccc(F)cc2F)c2cnc(NCC(C)(C)O)nc21"
result = "28.3 µM (active)"

[[record]]
compound_structure_string = "COc1ccc(C(=O)Nc2nc3ccccc3c(NCc3ccccc3)c2C#N)cc1"
result = "15.9 µM (active)"

[[record]]
compound_structure_string = "CCCCCCCCO[C@@H]1O[C@H](CO)[C@@H](O)[C@H](O)[C@H]1O"
result = "inactive"

[[record]]
compound_structure_string = "CCO[C@H](Cc1ccc(OCCc2ccc(OS(C)(=O)=O)cc2)cc1)C(=O)O"
result = "inactive"


====

Biological target: Estrogen receptor (Homo sapiens) (UniProt P03372)
Sequence (P03372 whole entry, looked up): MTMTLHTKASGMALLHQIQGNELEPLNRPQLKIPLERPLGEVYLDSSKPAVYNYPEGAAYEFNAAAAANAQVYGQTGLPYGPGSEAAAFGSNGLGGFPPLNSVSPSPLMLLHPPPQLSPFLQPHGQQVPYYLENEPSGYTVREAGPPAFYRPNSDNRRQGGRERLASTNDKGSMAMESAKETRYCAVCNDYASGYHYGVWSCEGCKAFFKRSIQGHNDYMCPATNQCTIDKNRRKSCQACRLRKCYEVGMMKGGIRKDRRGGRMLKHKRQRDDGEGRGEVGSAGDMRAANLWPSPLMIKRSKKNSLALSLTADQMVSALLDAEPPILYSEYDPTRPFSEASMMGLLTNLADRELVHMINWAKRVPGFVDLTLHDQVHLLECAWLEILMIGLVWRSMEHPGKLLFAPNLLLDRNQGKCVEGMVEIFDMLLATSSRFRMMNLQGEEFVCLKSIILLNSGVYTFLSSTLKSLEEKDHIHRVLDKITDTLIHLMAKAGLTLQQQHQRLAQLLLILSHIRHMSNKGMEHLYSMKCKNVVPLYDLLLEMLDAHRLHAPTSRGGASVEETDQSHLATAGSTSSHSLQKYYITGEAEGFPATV
Assay: qHTS assay to identify small molecule agonists of the estrogen receptor alpha (ER-alpha) signaling pathway using the BG1 cell line (AID 743079); note: nearly all actives have a fitted effect of over 20% in size
Details: BG1Luc4E2 cells, ERE-luciferase agonist, 22 h; series mostly up to 70.3 µM
Inconclusive results are not listed. The source made the active and inactive calls. Calls come from the whole dose curve; as a rule, active = well fitted activation curve with a large enough effect in the repeat runs; inconclusive = weak or mixed curves, or effect the other way; inactive = no such curve, though single readings can be large or run the other way.
Possible outcomes: active, inactive

[[record]]
compound = "CCCCC/C=C\\C/C=C\\CCCCCCCC(=O)NC(C)c1ccccc1 (stereo not drawn)"
label_class = "inactive"

[[record]]
compound = "CCN(CC)CCNc1ccc(CNC=O)c2sc3ccc(OC)cc3c(=O)c12"
label_class = "active"

[[record]]
compound = "CC1=CC=C(C(C)C)CC1"
label_class = "inactive"

[[record]]
compound = "O=C(OCCCCCCOC(=O)c1ccccc1)c1ccccc1"
label_class = "active"

[[record]]
compound = "OCCN1CCN(CCCN2c3ccccc3C=Cc3ccccc32)CC1"
label_class = "inactive"

[[record]]
compound = "N=c1ccn2c(n1)O[C@H]1[C@H](O)[C@@H](CO)O[C@H]12"
label_class = "inactive"

[[record]]
compound = "O=C(Cl)c1cc(C(=O)Cl)cc(C(=O)Cl)c1"
label_class = "inactive"

[[record]]
compound = "CC(=O)c1ccc2c(c1)N(CCCN(C)C)c1ccccc1S2"
label_class = "inactive"


====

Molecular target: Peroxisome proliferator-activated receptor delta (Homo sapiens)
Assay: qHTS assay to identify small molecule agonists of the peroxisome proliferator-activated receptor delta (PPARd) signaling pathway (AID 743212);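 note: HEK293H cells with PPARd UAS beta-lactamase reporter GeneBLAzer system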
Conditions: HEK293H PPARd-UAS-bla, beta-lactamase FRET ratio, 17 h; series mostly up to 62.6 µM
Results filed as inconclusive are left out. Activity calls are given as the source filed them. Calls follow the shape of the full dose curve.
Parameter: outcome

[[record]]
compound = "Cc1c(N)cccc1[N+](=O)[O-]"
result = "inactive"

[[record]]
compound = "O=C(NCCO[N+](=O)[O-])c1cccnc1"
result = "inactive"

[[record]]
compound = "COCC(C)OC(C)=O (centres undefined)"
result = "inactive"

[[record]]
compound = "CN1CCN(C(c2ccccc2)c2ccccc2)CC1"
result = "inactive"


====

Assay: qHTS assay to identify small molecule antagonists of the thyroid receptor (TR) signaling pathway (AID 743065); note: nearly all actives have a fitted effect of over 55% in size
Conditions: GH3.TRE-Luc, T3-stimulated luciferase inhibition, 23.5 h; series mostly up to 70.3 µM
From the text: U.S. Tox21 Program National Center for Advancing Translational Sciences [NCATS] NIH Chemical Genomics Center [NCGC] U.S. Environmental Protection Agency [EPA] National Institutes of Environmental Health Sciences [NIEHS] National Toxicology Program [NTP] U.S. Food and Drug Administration [FDA] Tox21 Assay Overview: Thyroid receptor (TR), a nuclear hormone receptor, plays an important role in development, proliferation, differentiation, metabolism, brain function, and cardiovascular system. […]
Results filed as inconclusive are left out. Calls of active or inactive are those of the source. Calls come from the whole dose curve; as a rule, active = well fitted inhibition curve with a large enough effect in the repeat runs; inconclusive = weak or mixed curves; inactive = no such curve, though single readings can be large or run the other way.
Possible outcomes: active, inactive

[[record]]
compound = "CCCCOC(=O)CCCCCCCC(=O)OCCCC"
label_class = "inactive"

[[record]]
compound = "CC(C)(C)OCC1CO1 (centres undefined)"
label_class = "inactive"

[[record]]
compound = "CCCCC"
label_class = "inactive"

[[record]]
compound = "CCOc1ccc(N)c([N+](=O)[O-])c1"
label_class = "inactive"

[[record]]
compound = "CN(C)CCN(Cc1ccc(Cl)cc1)c1ccccn1"
label_class = "active"

[[record]]
compound = "CCCCO"
label_class = "inactive"

[[record]]
compound = "CCCCCCCCCOS(=O)(=O)O"
label_class = "inactive"

[[record]]
compound = "COc1ccc(S(=O)(=O)N2C(=O)[C@@](c3ccccc3OC)(N3C[C@H](O)C[C@H]3C(=O)N(C)C)c3cc(Cl)ccc32)c(OC)c1"
label_class = "active"

[[record]]
compound = "O=C(Nc1ccc(S(=O)(=O)N2CCOCC2)cc1)c1cc(Cl)ccc1NS(=O)(=O)c1ccc(Cl)s1"
label_class = "active"

[[record]]
compound = "COc1cc2nc(N(C)CCCNC(=O)C3CCCO3)nc(N)c2cc1OC (centres undefined)"
label_class = "inactive"

[[record]]
compound = "Nc1cccc(S(=O)(=O)c2cccc(N)c2)c1"
label_class = "inactive"

[[record]]
compound = "Clc1ccc2c(c1)CCc1cccnc1C2=C1CCNCC1"
label_class = "active"

[[record]]
compound = "COC(C)OC"
label_class = "inactive"

[[record]]
compound = "COc1ccc(C(=O)c2ccc(OC)cc2O)c(O)c1"
label_class = "inactive"

[[record]]
compound = "CC(COCCO)OCCO (centres undefined)"
label_class = "inactive"

[[record]]
compound = "O=C(O)c1ccc(S(=O)(=O)O)cc1C(=O)O"
label_class = "inactive"

[[record]]
compound = "CCCCCCCCO[C@@H]1O[C@H](CO)[C@@H](O)[C@H](O)[C@H]1O"
label_class = "inactive"

[[record]]
compound = "C=CC(=O)OCCOCCOC(=O)C=C"
label_class = "active"

[[record]]
compound = "O=C(O)C1(C(=O)Nc2ccc(Cl)cc2Cl)CC1"
label_class = "active"

[[record]]
compound = "CCN(CC)CCNC(=O)c1cc(Br)c(N)cc1OC"
label_class = "inactive"

[[record]]
compound = "O=C1OC(CN2CCOCC2)CN1/N=C/c1ccc([N+](=O)[O-])o1 (centres undefined)"
label_class = "inactive"

[[record]]
compound = "NCC(=O)O"
label_class = "inactive"

[[record]]
compound = "Nc1cccc([N+](=O)[O-])c1"
label_class = "inactive"

[[record]]
compound = "CCCCC(CC)COC(=O)CCCCCCCCC(=O)OCC(CC)CCCC (centres undefined)"
label_class = "inactive"

